Source: ChEMBL document CHEMBL4689842

# Tested on: HEK-293T
# EXPERIMENTAL DETAILS: Multiplex assay against HEK293T
# Format: toxicity, cell-based
# CONDITION DETAILS: human, 12 h, 1 µM, compound concentration 1 uM, replicate 2
For each entry below, report its Population Apoptotic (%) value.
Give your result in % as a bare value.

// recorded Population Apoptotic (%) for CNC(=O)Nc1ccc2c(c1)[C@@]1(CC2)OC(=O)N(CC(=O)N(Cc2ccc(F)cc2)[C@@H](C)C(F)(F)F)C1=O [A-486] : 12

Noted for CC(C)CC(=O)Nc1[nH]nc2c1CN(C(=O)C1CCN(C)CC1)C2(C)C [PHA-793887] : its Population Apoptotic (%) reads 20

Entry O=C(c1cc2c(cc1F)OC(c1ccc(F)cc1)(c1ccc(Cl)cc1Cl)O2)N1CCOCC1 (configuration not stated) ; Population Apoptotic (%) = 16

// COC(=O)C1=C(C)NC(C)=C(C(=O)OCCCN2CCC(c3ccccc3)(c3ccccc3)CC2)[C@H]1c1cccc([N+](=O)[O-])c1 [NIGULDIPINE] : Population Apoptotic (%) value = 91

So for CN1CCN(Cc2ccc(Nc3ncc(Cl)c(Nc4ccccc4S(=O)(=O)N(C)C)n3)cc2)CC1 [DUBERMATINIB] , the logged Population Apoptotic (%) turned out to be 13

Entry under test: `Cc1nc(N2CC[C@H](O)C2)ncc1-c1cc(C(F)(F)F)cc2[nH]ncc12` . Its Population Apoptotic (%) was 8

Input CCCSc1nc(N[C@@H]2C[C@H]2c2ccc(F)c(F)c2)c2nnn([C@@H]3C[C@H](OCCO)[C@@H](O)[C@H]3O)c2n1 [TICAGRELOR] . Output Population Apoptotic (%): 9
